# SYSTEM NAME: GPR55 (Homo sapiens, UniProt Q9Y2T6)
# Sequence (Q9Y2T6 whole entry): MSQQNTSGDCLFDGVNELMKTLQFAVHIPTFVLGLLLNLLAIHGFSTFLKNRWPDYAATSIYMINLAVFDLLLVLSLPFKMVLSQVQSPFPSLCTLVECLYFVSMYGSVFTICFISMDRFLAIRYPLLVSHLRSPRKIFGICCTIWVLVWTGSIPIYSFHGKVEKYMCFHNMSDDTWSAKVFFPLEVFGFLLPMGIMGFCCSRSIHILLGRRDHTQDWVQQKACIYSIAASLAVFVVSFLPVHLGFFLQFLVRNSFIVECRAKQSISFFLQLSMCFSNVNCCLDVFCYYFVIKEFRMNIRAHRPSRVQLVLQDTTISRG
# MEASUREMENT PROTOCOL: GPR55 ERK phosphorylation assay in HEK293 cells
# Assay type: cell-based
# MEASUREMENT CONTEXT: IC50, inhibition of LPI-mediated GPR55 activity (pERK), LPI 4 μM (EC80)
EXPERIMENTAL READOUT: IC50 (µM)
Answer with a number only, understood to be in µM.

Qu. Request - read-out IC50 | tested on GPR55 (Homo sapiens, UniProt Q9Y2T6) | molecule CCCCCc1cc(O)c(C/C=C(\C)CCC=C(C)C)c(O)c1C(=O)O
Ans. 5.7

* * *

# SYSTEM NAME: concatenated human γ2–β2–α1–β2–α1 GABA receptor (Homo sapiens, UniProt P14867+P18507+P47870)
# Sequence (P14867 28-456): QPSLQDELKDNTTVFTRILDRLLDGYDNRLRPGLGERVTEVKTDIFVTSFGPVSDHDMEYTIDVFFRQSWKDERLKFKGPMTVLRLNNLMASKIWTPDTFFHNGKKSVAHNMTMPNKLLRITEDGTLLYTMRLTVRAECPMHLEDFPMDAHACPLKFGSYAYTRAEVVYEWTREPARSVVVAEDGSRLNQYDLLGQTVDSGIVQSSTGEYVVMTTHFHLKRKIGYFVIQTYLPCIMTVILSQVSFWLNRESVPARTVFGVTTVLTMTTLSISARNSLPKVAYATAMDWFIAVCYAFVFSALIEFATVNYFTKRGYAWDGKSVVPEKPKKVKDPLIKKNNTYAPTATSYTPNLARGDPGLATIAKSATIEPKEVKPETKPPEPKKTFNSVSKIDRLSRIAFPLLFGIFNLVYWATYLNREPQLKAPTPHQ
# Sequence (P47870 26-512): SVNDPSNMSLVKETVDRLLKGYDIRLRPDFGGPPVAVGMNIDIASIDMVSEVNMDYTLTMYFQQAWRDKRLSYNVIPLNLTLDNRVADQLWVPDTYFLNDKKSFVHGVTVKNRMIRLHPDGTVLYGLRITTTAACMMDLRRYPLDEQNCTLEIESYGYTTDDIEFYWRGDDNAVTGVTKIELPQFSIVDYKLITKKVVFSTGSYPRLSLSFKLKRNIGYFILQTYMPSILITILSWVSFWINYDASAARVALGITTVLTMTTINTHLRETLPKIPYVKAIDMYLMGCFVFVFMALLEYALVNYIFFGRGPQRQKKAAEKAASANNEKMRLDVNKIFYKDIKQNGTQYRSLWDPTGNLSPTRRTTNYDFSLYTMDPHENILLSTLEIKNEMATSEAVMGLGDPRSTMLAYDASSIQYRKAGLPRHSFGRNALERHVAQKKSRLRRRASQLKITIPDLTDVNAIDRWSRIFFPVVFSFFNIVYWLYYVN
# Sequence (P18507 40-475): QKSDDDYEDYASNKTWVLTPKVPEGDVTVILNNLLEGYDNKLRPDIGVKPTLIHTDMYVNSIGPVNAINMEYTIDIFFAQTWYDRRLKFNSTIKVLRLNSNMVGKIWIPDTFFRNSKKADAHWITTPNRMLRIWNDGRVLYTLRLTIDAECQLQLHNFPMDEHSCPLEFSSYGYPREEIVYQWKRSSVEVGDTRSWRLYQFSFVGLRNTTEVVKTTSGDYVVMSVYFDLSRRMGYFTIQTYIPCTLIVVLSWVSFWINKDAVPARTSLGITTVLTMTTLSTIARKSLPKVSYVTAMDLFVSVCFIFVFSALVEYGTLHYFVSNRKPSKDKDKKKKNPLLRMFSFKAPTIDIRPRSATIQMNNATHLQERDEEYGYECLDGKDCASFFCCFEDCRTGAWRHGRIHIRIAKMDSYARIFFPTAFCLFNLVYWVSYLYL
# MEASUREMENT PROTOCOL: Two-electrode voltage clamp, GABA-evoked currents in Xenopus oocytes
# MEASUREMENT CONTEXT: EC50, positive modulation of GABA-evoked currents, GABA 15 μM
EXPERIMENTAL READOUT: EC50
Write the numeric value and follow it with the unit.

Qu. Entry CCCCCc1cc(O)c(C/C=C(\C)CCC=C(C)C)c(O)c1C(=O)O [CBGA, cannabigerolic acid] : reported EC50 = ?
Ans. 0.91 µM

* * *

# SYSTEM NAME: GPR55 (Homo sapiens)
# MEASUREMENT PROTOCOL: GPR55 ERK phosphorylation assay in HEK293 cells
# Format: cell-based
# MEASUREMENT CONTEXT: IC50, inhibition of GPR55 activation, rounded value of the discussion
EXPERIMENTAL READOUT: IC50

Qu. What value of measured IC50 is listed for CCCCCc1cc(O)c(C/C=C(\C)CCC=C(C)C)c(O)c1C(=O)O [CBGA, cannabigerolic acid] ?
Ans. ~5 µM
